So I've got a bunch of sequences here, and I need their self-splicing fitness (ln) values.
PROTOCOL_DESCRIPTION: self-splicing fitness, log relative to wild type (ln ratio); higher = more splicing; Tetrahymena group I intron in knt gene, E. coli kanamycin selection, DiMSum; sequences stand for … in CUCUCU…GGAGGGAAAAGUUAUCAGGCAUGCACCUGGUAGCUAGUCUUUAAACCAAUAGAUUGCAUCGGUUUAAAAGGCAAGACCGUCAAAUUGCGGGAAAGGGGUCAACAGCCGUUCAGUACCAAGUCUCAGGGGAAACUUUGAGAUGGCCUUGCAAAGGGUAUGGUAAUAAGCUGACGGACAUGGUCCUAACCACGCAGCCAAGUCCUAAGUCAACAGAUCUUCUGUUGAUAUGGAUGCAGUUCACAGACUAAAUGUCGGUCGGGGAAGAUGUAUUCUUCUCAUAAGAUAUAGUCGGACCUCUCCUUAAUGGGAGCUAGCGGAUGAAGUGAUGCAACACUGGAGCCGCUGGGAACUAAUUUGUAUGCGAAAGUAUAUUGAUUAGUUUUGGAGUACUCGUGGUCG;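 note: selection with 25 µg/mL kanamycin versus none on LB agar overnight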
EXPERIMENTAL_CONDITIONS: 30 °C
Numbers only.

Lookup: GET /values?readout=self-splicing fitness (ln)&item= GUUAAGCAAUAUUACGUCGC
Found: -1.61

Lookup: Consider next the sequence AGAGAGCAAUAUUACGUUAG in the same way.
Found: -2.77

Lookup: Consider next the sequence GGCCAGCAAUAUUACGUGGC in the same way.
Found: -0.533

Fill in self-splicing fitness (ln) for each of the 7 sequences listed.
1. CGAAAGCAAUAUUACGAGCU
2. CACUAGCAAUAUUACGCUCA
3. UCACAGCAAUAUUACGGGAU
4. CGUAAGCAAUAUUACGCAUU
5. UUACAGCAAUAUUACGUGUG
6. GAUUAGCAAUAUUACGGCGG
7. GGCAAGCAAUAUUACGAUAG

Found:
[-2.9, -2.66, -3.45, -3.95, -1.72, -0.96, -2.73]

Fill in self-splicing fitness (ln) for each of the 6 sequences listed.
1. CAUUAGCAAUAUUACGGCGA
2. UUUGAGCAAUAUUACGGGUU
3. AUUGAGCAAUAUUACGAUAU
4. UCCAAGCAAUAUUACGGUAC
5. ACGCAGCAAUAUUACGCUAU
6. ACUGAGCAAUAUUACGCGGC

Found:
[-2.09, -3.23, -2.76, -4.3, -1.25, -3.69]

Fill in self-splicing fitness (ln) for each of the 3 sequences listed.
1. CGAUAGCAAUAUUACGCUAC
2. GGCAAGCAAUAUUACGAGCU
3. GCCAAGCAAUAUUACGCAUU

Found:
1. -2.95
2. -2.69
3. -1.35

Taken from the supplement of paper PMC7877785.
